TARGET_ENTITY: CRTh2 receptor (Homo sapiens)
PROTOCOL: CRTH2 cAMP functional assay: inhibition of PGD2-mediated attenuation of forskolin-induced cAMP accumulation in CHO.K1-CRTh2 cells
ASSAY_SETUP: 10 nM PGD2, 5 μM forskolin, cAMP Alphascreen
pIC50: −log10 of the molar value.
MEASURE_NAME: pIC50

a = CC(Oc1ccc(Cl)cc1Cc1cc(Cl)ccc1OCC(=O)O)C(=O)N1CCCC1 (racemic)
b = CC(Oc1ccccc1Cc1cc(Cl)ccc1OCC(=O)O)C(=O)N1CCCC1 (stereo not shown) [Example 7]
Given a and b , report the one with the higher recorded pIC50. Write down the label of the entry you select.
a
(a: 7.65, b: 7.43)

###

TARGET_ENTITY: CRTh2 receptor (Homo sapiens, UniProt Q9Y5Y4)
Sequence (Q9Y5Y4 1-395): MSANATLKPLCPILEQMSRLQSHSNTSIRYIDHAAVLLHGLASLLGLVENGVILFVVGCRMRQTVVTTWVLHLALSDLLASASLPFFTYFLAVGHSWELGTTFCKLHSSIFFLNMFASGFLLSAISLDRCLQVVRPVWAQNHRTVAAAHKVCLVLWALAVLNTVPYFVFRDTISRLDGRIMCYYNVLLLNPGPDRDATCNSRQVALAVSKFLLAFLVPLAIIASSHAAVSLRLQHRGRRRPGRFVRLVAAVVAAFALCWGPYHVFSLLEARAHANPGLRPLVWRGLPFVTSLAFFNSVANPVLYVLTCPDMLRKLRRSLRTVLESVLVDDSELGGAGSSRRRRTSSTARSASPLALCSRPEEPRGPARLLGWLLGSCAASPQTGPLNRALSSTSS
pKi: −log10 of the molar value.
MEASURE_NAME: pKi

{"COMPOUND": "CC(Oc1ccccc1Cc1cc(Cl)ccc1OCC(=O)O)C(=O)N1CCCC1 (single isomer, unassigned) [8 (enantiomer 1)]", "MEASURE_NAME": "pKi", "OBSERVED": 7.22}
{"COMPOUND": "CC(Oc1ccc(Cl)cc1Cc1cc(Cl)ccc1OCC(=O)O)C(=O)N1CCCC1 (racemic) [Example 1]", "MEASURE_NAME": "pKi", "OBSERVED": 7.39}
